Overview of recorded EC50 (cAMP reporter) for various binders
# targetOrTestSystem: glucagon receptor (UniProt P47871 26-477, limits assumed)
# Sequence (P47871 26-477 limits assumed): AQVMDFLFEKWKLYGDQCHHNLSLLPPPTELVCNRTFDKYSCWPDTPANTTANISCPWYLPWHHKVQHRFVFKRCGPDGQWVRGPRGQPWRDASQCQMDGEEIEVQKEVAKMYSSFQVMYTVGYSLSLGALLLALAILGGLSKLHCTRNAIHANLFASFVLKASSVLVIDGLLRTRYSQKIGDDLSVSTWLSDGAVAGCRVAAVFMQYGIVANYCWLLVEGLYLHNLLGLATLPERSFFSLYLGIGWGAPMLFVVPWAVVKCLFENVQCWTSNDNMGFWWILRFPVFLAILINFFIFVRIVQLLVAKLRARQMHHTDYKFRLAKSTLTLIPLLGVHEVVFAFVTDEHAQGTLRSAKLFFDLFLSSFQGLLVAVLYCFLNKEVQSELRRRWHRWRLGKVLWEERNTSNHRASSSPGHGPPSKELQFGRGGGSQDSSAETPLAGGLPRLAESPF
# test: cell-based or functional assay
*1 amine or outer side, *2 acyl side, *3 side chain or, on linkers, in order; H or OH if unused. Where no end group is shown, it is not given here. Side-chain parts run from the residue outwards. [ ]: non-standard residue; d: D form. The star is where a group is joined. Palmitoyl = CCCCCCCCCCCCCCCC(=O)*; Suc = O=C(CCC(=O)[*:2])[*:1]; Aib = CC(C)(N)C(=O)O; βAla = NCCC(=O)O
Give just the numeric value; nM need not be written.

Worked cases, EC50 (cAMP reporter) given:
binder: Y[Aib]EGTFTSDYSIYLDKQAA[Aib]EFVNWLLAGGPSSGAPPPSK([Suc-Palmitoyl])G-NH2 [peptide of SEQ ID NO: 140]
result: 0.077
--
binder: YXEGTFTSDXSIYLDKQAAXEFVNWLLAGGPSSGAPPPS (aib at 2 and 20; 4-aminoPhe at 10 acylated F(4-aminoγEγEC16); NH2) [peptide of SEQ ID NO: 143]
result: 0.165

Kindly consider the entry below.
// EC50 (cAMP reporter) lookup, binder = Y[Aib]EGTFTSDYSIYLDKQAA[Aib]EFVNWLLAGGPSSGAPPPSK([βAla-Suc-Palmitoyl])G-NH2 [peptide of SEQ ID NO: 141] , result: 0.058
